Documented z-score across a set of compounds
Target: NADPH oxidase 5 (Homo sapiens) (UniProt Q96PH1)
Sequence (Q96PH1 whole entry, looked up): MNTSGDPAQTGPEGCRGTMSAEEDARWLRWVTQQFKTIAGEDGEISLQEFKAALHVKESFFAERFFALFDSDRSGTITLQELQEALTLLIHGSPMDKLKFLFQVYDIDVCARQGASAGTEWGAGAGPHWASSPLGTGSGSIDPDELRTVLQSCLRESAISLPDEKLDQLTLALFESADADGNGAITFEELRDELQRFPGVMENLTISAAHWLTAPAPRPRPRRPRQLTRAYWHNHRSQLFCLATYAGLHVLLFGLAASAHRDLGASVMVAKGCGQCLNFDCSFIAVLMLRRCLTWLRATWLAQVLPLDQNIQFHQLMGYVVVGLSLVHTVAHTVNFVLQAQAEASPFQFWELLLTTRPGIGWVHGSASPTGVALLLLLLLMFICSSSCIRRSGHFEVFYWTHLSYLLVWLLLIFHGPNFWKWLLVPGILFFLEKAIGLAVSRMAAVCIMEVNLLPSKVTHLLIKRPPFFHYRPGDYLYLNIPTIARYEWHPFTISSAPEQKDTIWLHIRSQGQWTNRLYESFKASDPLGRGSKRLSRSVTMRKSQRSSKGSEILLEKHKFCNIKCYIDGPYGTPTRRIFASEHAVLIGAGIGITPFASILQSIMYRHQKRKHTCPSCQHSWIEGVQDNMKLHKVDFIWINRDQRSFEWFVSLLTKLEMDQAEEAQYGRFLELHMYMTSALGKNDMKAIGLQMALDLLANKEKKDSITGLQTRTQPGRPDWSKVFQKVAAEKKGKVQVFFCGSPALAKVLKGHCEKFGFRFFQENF
Experiment: NOX5-dependent H2O2 signal modulators, primary screen, NOX inhibitor project, cell-based, HEK293-NOX5, Amplex Red fluorescence (AID 1161)
Conditions: HEK293-NOX5, ionomycin, 45 min, higher = more signal
Property measured: z-score

1. COCCOC(=O)N1C(=O)[C@@]2(c3cc(C#CC4(O)CCCCCC4)ccc31)[C@H](C(=O)NC[C@H](O)c1ccccc1)[C@H]1C(=O)O[C@H](c3ccccc3)[C@H](c3ccccc3)N1[C@@H]2c1ccc(O)cc1 :: 1.61
2. COC(=O)[C@@]1(Cc2ccc(OC)cc2)[C@H]2c3cc(C(=O)N4CCCC4)n(CCc4ccc(OC)c(Br)c4)c3C[C@H]2CN1C(=O)c1ccccc1 :: -0.759
3. CC1CC/C=C\[C@H]2OC34C=CCN(CCN5CCOCC5)C(=O)[C@H]3N(CCCCCCO)C(=O)[C@@H]4C2C(=O)O1 (stereo partly drawn) :: 1.96

* * *

Test system: PRMT1 (protein arginine N-methyltransferase 1)
Assay: PRMT1 binders on small-molecule microarrays, primary screen, biochemical, small-molecule microarray, 635 nm fluorescence (AID 1088);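 also: binding of Prmt1 protein to compounds spotted on small-molecule microarray slides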
Details: small-molecule microarray binding, higher = more signal
Entry flag: true if composite z-score reaches 0.8; false if it does not.

1) CC(=O)c1ccc(C(O)C2C=CC3C(=O)NC(=O)C3N2Nc2ccc(Cl)cc2Cl)cc1 (stereo not given) :: false
2) CC=CC(O)C1C=CC2C(=O)N(C)C(=O)C2N1NC(=O)OC(C)(C)C (stereo not given) :: false
3) C=CCC(OC(C)=O)[C@@H]1[C@@H](N(Cc2ccc(-c3ccccc3)cc2)C(=O)c2ccc(C)cc2)c2cc(OCCCO)ccc2N1C(=O)c1ccc2ccccc2c1 (stereo not given in full) :: false
4) C=CCNC(=O)[C@@H]1[C@H]2C(=O)O[C@H](c3ccccc3)[C@H](c3ccccc3)N2[C@H](c2ccccc2OCCO)[C@@]12C(=O)N(C(=O)OCCOC)c1ccc(C#CCCO)cc12 :: true
5) CCCCC=C[C@@H](NC(=O)c1ccc(C(F)(F)F)cc1)c1ccccc1 :: false
6) COCCOC(=O)N1C(=O)[C@@]2(c3cc(C#CC4(O)CCCCCC4)ccc31)[C@H](C(=O)N1CCc3cc(OC)c(OC)cc3C1)[C@H]1C(=O)O[C@H](c3ccccc3)[C@H](c3ccccc3)N1[C@@H]2c1ccc(O)cc1 :: true
7) O=C1C2C=CC(C(O)c3ccc([N+](=O)[O-])cc3)N(Nc3ccccc3)C2C(=O)N1c1ccccc1 (stereo not given) :: false
8) C=CCC(OC(C)=O)[C@@H]1[C@@H](N(Cc2ccc(-c3cccc(C(F)(F)F)c3)o2)C(=O)Cc2ccc(F)cc2)c2cc(OCCCO)ccc2N1C(=O)c1ccc2ccccc2c1 (stereo not given in full) :: false
9) COc1cccc(OC)c1C(=O)O[C@H]1[C@@H]2OC(=O)[C@H](Cc3cccc(Br)c3)C/C=C/C[C@@H](Cc3cccc(Br)c3)C(=O)O[C@H]2[C@@H](OC)O[C@@H]1CO :: true
10) CCCC[C@@H]1C[C@H]1[C@@H](NC(=O)Cc1ccccc1)c1ccc(Cl)cc1 :: false
11) CCOC(=O)C1=CC[C@@H](c2ccccc2Cl)N(S(=O)(=O)c2ccc(C)cc2)[C@H]1c1cccc(OC)c1 :: false
12) COC(=O)[C@@]1(CCS(=O)(=O)c2ccccc2)N=C(c2ccc(OCCCO)cc2)O[C@H]1c1ccccc1N=[N+]=[N-] :: true
13) CC[C@H](C)C(=O)O[C@H]1CC[C@]2(C)C3=C(CCC2C1(C)C)[C@]1(C)CC[C@H]([C@H](C)CCCC(C)C)[C@@]1(C)CC3 (stereo not given in full) :: false
14) [N-]=[N+]=Nc1ccccc1[C@@H]1OC(c2ccc(OCCCO)cc2)=N[C@]1(Cc1ccccc1)C(N)=O :: false

* * *

Experiment: inhibitors of hydroxyurea-induced Chk1 phosphorylation, primary screen, imaging, HeLa, phospho-Chk1 antibody, percent positive cells (AID 1186)
Details: hydroxyurea-induced phospho-Chk1 immunofluorescence imaging, higher = more signal
Activity calls are given as the source filed them. How the calls were made is not given here.
As shown below, each of these compounds has a reported z-score value.
Property measured: z-score

1. COc1ccc(CCNC(=O)[C@@]2(Sc3ccc(C)cc3)CC(=O)N(Cc3cc(C(F)(F)F)cc(C(F)(F)F)c3)[C@@H]2c2ccc(CO)cc2)cc1 :: 0.132 (inactive)
2. C=CCC(OC(C)=O)[C@@H]1[C@@H](N(Cc2cccc3ccccc23)C(=O)c2cccc3ccccc23)c2cc(OCCCO)ccc2N1C(=O)Cc1ccc2ccccc2c1 (stereo partly drawn) :: 0.233 (inactive)
3. C=CCC(OC(C)=O)[C@@H]1[C@@H](N(Cc2ccc(-c3cccc(C(F)(F)F)c3)o2)C(=O)Cc2ccc(OC)cc2)c2cc(OCCCO)ccc2N1C(=O)c1ccc2ccccc2n1 (stereo partly drawn) :: 0.401 (inactive)

* * *

Biological target: Neurogenic locus notch homolog protein 2 (Homo sapiens) (UniProt Q04721)
Sequence (Q04721 whole entry, looked up): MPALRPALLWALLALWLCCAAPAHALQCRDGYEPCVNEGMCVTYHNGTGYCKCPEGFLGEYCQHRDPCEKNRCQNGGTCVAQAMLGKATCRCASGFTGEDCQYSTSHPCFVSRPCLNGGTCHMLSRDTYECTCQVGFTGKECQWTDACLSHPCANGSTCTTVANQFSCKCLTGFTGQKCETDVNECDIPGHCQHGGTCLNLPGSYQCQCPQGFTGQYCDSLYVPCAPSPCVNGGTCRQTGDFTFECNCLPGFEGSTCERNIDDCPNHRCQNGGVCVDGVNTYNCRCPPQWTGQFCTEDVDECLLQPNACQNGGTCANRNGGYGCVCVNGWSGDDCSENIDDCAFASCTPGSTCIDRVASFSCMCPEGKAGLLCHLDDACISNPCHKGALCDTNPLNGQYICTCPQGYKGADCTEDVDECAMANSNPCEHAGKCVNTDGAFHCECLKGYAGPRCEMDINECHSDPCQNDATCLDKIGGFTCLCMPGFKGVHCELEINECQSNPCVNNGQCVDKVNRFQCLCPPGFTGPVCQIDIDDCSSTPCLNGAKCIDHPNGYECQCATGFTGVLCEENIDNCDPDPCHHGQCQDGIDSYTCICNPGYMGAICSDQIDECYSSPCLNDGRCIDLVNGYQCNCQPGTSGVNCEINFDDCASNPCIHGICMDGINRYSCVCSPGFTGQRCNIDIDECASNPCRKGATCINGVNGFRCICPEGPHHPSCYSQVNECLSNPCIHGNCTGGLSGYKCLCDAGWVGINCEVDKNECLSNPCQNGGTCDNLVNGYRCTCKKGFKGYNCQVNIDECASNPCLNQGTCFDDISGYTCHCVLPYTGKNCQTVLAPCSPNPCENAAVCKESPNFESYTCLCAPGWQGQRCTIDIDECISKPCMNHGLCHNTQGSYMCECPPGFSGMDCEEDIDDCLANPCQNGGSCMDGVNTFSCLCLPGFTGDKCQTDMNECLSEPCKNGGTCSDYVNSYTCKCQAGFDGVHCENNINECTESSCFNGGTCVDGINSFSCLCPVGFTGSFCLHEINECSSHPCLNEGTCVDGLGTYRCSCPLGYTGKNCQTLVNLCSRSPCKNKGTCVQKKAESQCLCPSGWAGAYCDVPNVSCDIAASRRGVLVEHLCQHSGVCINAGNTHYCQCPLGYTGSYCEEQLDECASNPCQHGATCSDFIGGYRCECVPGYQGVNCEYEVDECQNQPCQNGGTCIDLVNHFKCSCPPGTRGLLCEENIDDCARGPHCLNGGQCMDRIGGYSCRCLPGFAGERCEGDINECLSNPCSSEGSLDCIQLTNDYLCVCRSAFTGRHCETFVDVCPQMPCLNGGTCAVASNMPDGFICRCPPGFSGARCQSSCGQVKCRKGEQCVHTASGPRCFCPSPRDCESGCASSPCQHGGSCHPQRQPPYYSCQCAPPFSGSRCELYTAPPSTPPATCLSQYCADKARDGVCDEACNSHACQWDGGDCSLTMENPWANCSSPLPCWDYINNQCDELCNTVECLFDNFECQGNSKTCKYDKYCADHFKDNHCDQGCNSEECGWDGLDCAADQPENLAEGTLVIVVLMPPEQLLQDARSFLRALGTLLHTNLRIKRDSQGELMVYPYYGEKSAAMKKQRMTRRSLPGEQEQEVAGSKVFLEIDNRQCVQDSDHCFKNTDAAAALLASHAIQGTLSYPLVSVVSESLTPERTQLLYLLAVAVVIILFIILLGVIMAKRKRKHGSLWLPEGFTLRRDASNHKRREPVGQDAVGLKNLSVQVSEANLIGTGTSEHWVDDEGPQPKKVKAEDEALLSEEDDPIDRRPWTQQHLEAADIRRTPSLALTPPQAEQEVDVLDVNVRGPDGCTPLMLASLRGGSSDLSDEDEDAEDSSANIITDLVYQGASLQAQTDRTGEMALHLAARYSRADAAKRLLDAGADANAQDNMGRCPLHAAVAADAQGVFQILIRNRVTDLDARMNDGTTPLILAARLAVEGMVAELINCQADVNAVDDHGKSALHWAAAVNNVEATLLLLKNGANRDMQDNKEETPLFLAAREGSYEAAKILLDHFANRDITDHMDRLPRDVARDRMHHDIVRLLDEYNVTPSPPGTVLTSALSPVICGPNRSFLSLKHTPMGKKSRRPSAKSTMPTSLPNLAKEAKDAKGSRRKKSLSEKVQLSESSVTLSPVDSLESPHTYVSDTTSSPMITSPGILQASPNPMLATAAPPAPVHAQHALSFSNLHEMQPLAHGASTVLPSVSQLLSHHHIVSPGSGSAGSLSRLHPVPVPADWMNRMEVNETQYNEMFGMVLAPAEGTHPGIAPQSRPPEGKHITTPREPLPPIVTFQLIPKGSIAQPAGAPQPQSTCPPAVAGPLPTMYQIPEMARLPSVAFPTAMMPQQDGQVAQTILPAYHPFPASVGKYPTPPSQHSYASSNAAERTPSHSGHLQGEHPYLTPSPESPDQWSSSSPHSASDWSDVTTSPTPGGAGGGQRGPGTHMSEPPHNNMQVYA
Assay: Notch2 binders on small-molecule microarrays, primary screen, biochemical, small-molecule microarray, 635 nm fluorescence, stem cell growth factors (AID 1073)
Conditions: Notch2 binding, higher = more signal
Known composite z-score of a selection of compounds
Property measured: composite z-score

1. CC(C)C[C@H]1NC(=O)[C@H](Cc2ccccc2)NC(=O)[C@@]23C(=O)N[C@@H](Cc4ccccc4)C2[C@H](C)[C@@]2(C)O[C@H]2C3/C=C/C/C=C\CNC1=O (stereo partly specified) :: 0.777
2. C=C(COC)/C(=C/C[C@H](OC(=O)c1ccncc1)c1cccc(OCCO)c1)c1cnc2ccccc2c1 :: 1.41
3. COCCOC(=O)N1C(=O)[C@@]2(c3cc(C#CCC(C(=O)OC)C(=O)OC)ccc31)[C@H](c1ccc(OCCO)cc1)N1[C@H](c3ccccc3)[C@H](c3ccccc3)OC(=O)[C@H]1[C@@H]2C(=O)N1CCCCCCC1 :: 1.37
4. CC(=O)n1cc(C(O)C2C=CC3C(=O)N(c4ccccc4)C(=O)C3N2Nc2ccccc2F)c2ccccc21 (stereo unspecified) :: 0.021
5. CC(C)CNC(=O)[C@@H]1c2ccccc2C(=O)N(CC23CC4CC(CC(C4)C2)C3)[C@H]1c1ccc(CO)cc1 :: 0.632
6. CC1CC/C=C\[C@H]2OC34C=CCN(c5ccc(Cl)cc5)C(=O)[C@H]3N(CCCO)C(=O)[C@]4(C)C2C(=O)O1 (stereo partly specified) :: -0.932
7. COc1ccccc1CN1C(=O)c2ccccc2[C@](Cc2ccccc2I)(C(=O)NCCCN(C)C)[C@@H]1c1ccc(CO)cc1 :: 0.452
8. CC(C)CNC(=O)[C@@H]1c2ccccc2C(=O)N(Cc2ccccc2Cl)[C@H]1c1ccc(CO)cc1 :: -0.595
9. COC(=O)C1(CC(C)C)C=C2C(=C(C(C)C)C(=O)C2C)CN1 (stereo unspecified) :: -0.507
10. NCCCC[C@@H]1NC(=O)[C@H]2C[C@@H](C(=O)O)[C@@H](c3cccc(OCCO)c3)N2C1=O :: 1.61
11. CN1C(=O)C2C(C1=O)C1C=C(c3ccc(CO)cc3)C2C(c2cccs2)N1C (stereo unspecified) :: -0.0125
12. CCC(CC)C(O)C1C=CC2C(=O)N(C)C(=O)C2N1N1CCCCC1 (stereo unspecified) :: 1.31
13. [N-]=[N+]=NCc1ccccc1C[C@]1(C(=O)N2CCCCC2)N=C(c2ccc(OCCCO)cc2)O[C@H]1c1ccccc1 :: 1.07
14. CC(=O)NCCCC[C@@H]1NC(=O)[C@H]2C[C@@H](C(=O)NCCCCCC[N+](C)(C)C)[C@@H](c3ccc(O)cc3)N2C1=O :: -0.181
15. CCOC(=O)C1=CCC(c2cc3ccccc3[nH]2)N(S(=O)(=O)c2ccccc2[N+](=O)[O-])C1 (stereo unspecified) :: 1.37
16. COCCCNC(=O)[C@@H]1c2ccccc2C(=O)N(C2CCCCC2)[C@H]1c1ccc(CO)cc1 :: -1.03

* * *

Experiment: cell viability in Huh7 cells, primary screen, cytotoxicity control for HCV replication inhibitor project, CellTiter-Glo luminescence, basal, 48 h (AID 1143);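 also: Huh7 hepatoma cells carrying a hepatitis C replication reporter with no stimulus; test concentration not given here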
Details: Huh7 HCV replicon, higher = more signal, called active from +8 up or from −8 down
Property measured: z-score

1. C=CCC(OC(C)=O)[C@@H]1[C@@H](N(Cc2cc3ccccc3o2)C(=O)Cc2ccc(OC)cc2)c2cc(OCCCO)ccc2N1C(=O)Cc1ccc(OC)cc1 (some centres not stated) :: -1.17
2. COc1ccc([Si](C)(C)[C@H]2[C@H](CCn3cc([C@H](O)c4ccccc4)nn3)O[C@@]3(C(=O)N(c4ccccc4)c4ccccc43)[C@@H]2C)cc1 :: -4.47
3. C=CC(CO)NC(=O)OCC1c2ccccc2-c2ccccc21 (configuration not stated) :: 0.0812
4. CCCCC(O)C1C=CC2C(=O)NC(=O)C2N1Nc1ccc(Cl)cc1Cl (configuration not stated) :: -1.19
5. C=CCC(OC(C)=O)[C@@H]1[C@@H](N(Cc2ccc(-c3ccccc3)cc2)C(=O)c2cccc3ccccc23)c2cc(OCCCO)ccc2N1C(=O)c1ccc2ccccc2c1 (some centres not stated) :: -1.61
6. CC(C)C[C@@H]1NC(=O)[C@@H]2C[C@H](C(=O)NCCCC[N+](C)(C)C)[C@H](c3ccc(O)cc3)N2C1=O :: -0.394
7. COCCOC(=O)N1C(=O)[C@@]2(c3ccccc31)[C@H](c1ccc(OCCO)cc1)N1[C@H](c3ccccc3)[C@H](c3ccccc3)OC(=O)[C@H]1[C@@H]2C(=O)N1CCN(c2ncccn2)CC1 :: -2

Cited source for all entries: PubChem BioAssay
